Each entry below lists one item and its recorded hEphB3-SEAP-: absorbance at 450 nm, percentage with respect to hEphA4-SEAP-His as 100% value.
Biological target: T1, human EphB3 (Homo sapiens, UniProt P54753)
T1 construct: a protein of the extracellular region of each human Eph receptor fused with the SEAP protein and the His tag; made in house; host or cells: Expi293F cells
T1 sequence (P54753 34-559 limits assumed): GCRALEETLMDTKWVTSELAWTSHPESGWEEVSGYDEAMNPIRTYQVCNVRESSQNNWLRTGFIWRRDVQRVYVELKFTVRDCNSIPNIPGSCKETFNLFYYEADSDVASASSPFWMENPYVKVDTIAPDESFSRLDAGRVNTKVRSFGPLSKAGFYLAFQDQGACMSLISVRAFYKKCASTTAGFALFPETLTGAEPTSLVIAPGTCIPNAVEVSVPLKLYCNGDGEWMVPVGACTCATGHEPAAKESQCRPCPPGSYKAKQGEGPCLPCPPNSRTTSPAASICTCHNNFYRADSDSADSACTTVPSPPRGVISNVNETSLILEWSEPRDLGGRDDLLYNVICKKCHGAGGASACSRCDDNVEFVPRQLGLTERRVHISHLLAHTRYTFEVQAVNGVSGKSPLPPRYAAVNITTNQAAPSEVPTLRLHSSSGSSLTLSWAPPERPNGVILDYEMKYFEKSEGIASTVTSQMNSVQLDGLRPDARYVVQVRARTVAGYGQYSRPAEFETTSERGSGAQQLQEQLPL
Assay: Selectivity ELISA of humanized antibodies for human Eph receptor
Format: binding
Conditions: coated protein 1 nM
Output should be the measured figure followed by the unit it is expressed in.

See these solved cases before continuing.
molecule	measuredResult
154 (antibody, V domains shown, synthetic humanized antibody heavy chain variable region sequence; synthetic humanized antibody light chain variable region sequence) VH: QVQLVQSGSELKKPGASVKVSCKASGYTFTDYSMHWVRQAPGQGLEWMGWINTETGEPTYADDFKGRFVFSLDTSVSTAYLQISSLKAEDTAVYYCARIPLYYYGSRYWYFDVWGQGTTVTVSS VL: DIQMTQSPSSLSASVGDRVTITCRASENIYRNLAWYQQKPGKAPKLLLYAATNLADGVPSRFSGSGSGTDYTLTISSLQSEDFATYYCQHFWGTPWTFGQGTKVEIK	6.2%
84 (antibody, V domains shown, constant regions without entry; synthetic humanized antibody light chain variable region sequence; synthetic humanized antibody heavy chain variable region sequence) VL: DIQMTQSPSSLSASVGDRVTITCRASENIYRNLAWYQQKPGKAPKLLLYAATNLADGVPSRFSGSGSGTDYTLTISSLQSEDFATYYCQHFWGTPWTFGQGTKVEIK VH: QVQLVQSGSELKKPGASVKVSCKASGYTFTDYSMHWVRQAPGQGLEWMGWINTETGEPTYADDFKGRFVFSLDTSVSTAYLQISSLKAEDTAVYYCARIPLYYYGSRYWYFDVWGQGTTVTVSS	4.8%
132 (antibody, V domains shown, synthetic humanized antibody heavy chain variable region sequence; synthetic humanized antibody light chain variable region sequence) VH: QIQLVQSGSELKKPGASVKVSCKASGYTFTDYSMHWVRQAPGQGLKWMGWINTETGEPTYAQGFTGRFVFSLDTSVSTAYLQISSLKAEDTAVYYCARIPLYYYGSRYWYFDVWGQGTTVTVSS VL: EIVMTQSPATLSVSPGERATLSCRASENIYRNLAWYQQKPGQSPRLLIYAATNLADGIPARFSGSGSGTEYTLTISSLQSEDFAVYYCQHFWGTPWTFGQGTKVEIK	4.7%

# context switch: different molecule, same hEphB3-SEAP-: absorbance at 450 nm, percentage with respect to hEphA4-SEAP-His as 100%
Task item: Would you kindly share the measured hEphB3-SEAP-: absorbance at 450 nm, percentage with respect to hEphA4-SEAP-His as 100% for 69 (antibody, V domains shown, synthetic humanized antibody heavy chain variable region sequence; synthetic humanized antibody light chain variable region sequence) VH: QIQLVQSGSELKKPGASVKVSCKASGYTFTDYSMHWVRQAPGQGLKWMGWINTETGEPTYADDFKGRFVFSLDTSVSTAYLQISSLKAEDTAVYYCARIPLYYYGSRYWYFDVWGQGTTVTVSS VL: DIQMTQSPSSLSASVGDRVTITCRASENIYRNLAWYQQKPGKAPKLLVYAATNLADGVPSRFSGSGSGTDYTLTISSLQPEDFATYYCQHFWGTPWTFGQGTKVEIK ?
Reply: 5.9%
